Test Details: Phase I single oral dose trials: safety, tolerability, pharmacokinetics
Assay type: in vivo, human
Condition Summary: male, human, plasma; single oral dose 100 mg; read-out: T1/2 (converted)
Measurement Name: half-life

INSERT INTO assay_data (entry_smiles, value) VALUES
  ('Cc1cc(/C=C/C#N)cc(C)c1Nc1ccnc(Nc2ccc(C#N)cc2)n1', '55 h');

====

Test system: HIV-1 mutant 179E
Test Details: MT-4 cell-based antiviral assay, SDM mutant
Condition Summary: Human immunodeficiency virus 1, MT4
pIC50: −log10 of the molar value.
Examples of compounds with documented pIC50 follow.
Measurement Name: pIC50

INSERT INTO measurements (compound, measurement_name, value) VALUES
  ('Cc1ccnc2c1NC(=O)c1cccnc1N2C1CC1 [NVP]', 'pIC50', 6.80),
  ('O=C1Nc2ccc(Cl)cc2[C@@](C#CC2CC2)(C(F)(F)F)O1 [EFV, efavirenz]', 'pIC50', 8.30);
